// provenance: patent US20260242478A1

For each record, write down the corresponding Anti-CD28 Fab (SEQ ID NOs: 696, 697) signal.
- STUDY TARGET: T1, Anti-CD28 Fab (SEQ ID NOs: 696, 697)
- T1 construct: The Fab was biotinylated and captured on neutravidin coated plates in the phage ELISA
- T1 sequence (VH, as listed by the source, chain 1 of 2): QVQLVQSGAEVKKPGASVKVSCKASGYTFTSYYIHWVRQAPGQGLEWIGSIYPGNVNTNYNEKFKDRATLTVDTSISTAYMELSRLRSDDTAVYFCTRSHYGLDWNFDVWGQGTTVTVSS
- T1 sequence (VL, as listed by the source, chain 2 of 2): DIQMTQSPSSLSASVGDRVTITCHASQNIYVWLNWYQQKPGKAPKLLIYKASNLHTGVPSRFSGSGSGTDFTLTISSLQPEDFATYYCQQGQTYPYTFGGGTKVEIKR
- RUN DESCRIPTION: phage binding ELISA; biotinylated anti-CD28 Fab on neutravidin plate, bound phage detected with anti-M13 HRP;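 note: crude supernatants of clonal phage screened, wells pretreated with blocking buffer with or without CD28 antigen before brief phage incubation, washed, then bound phage detected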
I'd appreciate a reply containing only the number, no unit.

Tell me Anti-CD28 Fab (SEQ ID NOs: 696, 697) signal reported for YCDGHSQEYMWKCL (Tested as clonal phage supernatant) [Phage-755] 1.9

Tell me Anti-CD28 Fab (SEQ ID NOs: 696, 697) signal reported for YCAGHLEEYMDKCL (Tested as clonal phage supernatant) [Phage-761] 1.9

Tell me Anti-CD28 Fab (SEQ ID NOs: 696, 697) signal reported for YCEGHSEEYMSKCL (Tested as clonal phage supernatant) [Phage-754] 1.91

Tell me Anti-CD28 Fab (SEQ ID NOs: 696, 697) signal reported for YCEGHLAVYMQKCL (Tested as clonal phage supernatant) [Phage-751] 1.91

Tell me Anti-CD28 Fab (SEQ ID NOs: 696, 697) signal reported for YCDGHLKEYQEKCL (Tested as clonal phage supernatant) [Phage-749] 1.91
